- protocol.description: Cytotoxicity assay in confluent, non-differentiated Caco-2 cells (MTS)
- Type: cell-based, human
- condition: human, confluent, non-differentiated Caco-2 cells, isolated compounds, mean ± SD
outcome.measure: EC50 at 24 h (mM)
Write it as a number; the unit mM goes unstated.

Recorded EC50 at 24 h for CCCCCCCCCC(=O)O , please?
1.33

Origin of measurements: patent US20220142957A1
